- Method: Human HepG2 cell viability assay in 384 well format
- Assay type: toxicity, cell-based
- Parameters: dose 125 nL, time 70.5 hour; concentration not given beside the values
- Reported Conditions: HepG2 cells, read-out: Inhibition
# maps each entry to its cytotoxicity at 70.5 h

- Compound: "C[C@H](NC(=O)C1(N(C)Cc2ccccc2)Cc2ccccc2C1)C(N)=O"
  U: "%"
  cytotoxicity at 70.5 h: -2.36
- Compound: "CCOc1ccccc1OC1CCN(C(=O)c2cnsn2)CC1"
  U: "%"
  cytotoxicity at 70.5 h: -1.79
- Compound: "O=C(NCc1nnc2n1CCC2)c1ccc(C2CCCO2)s1 (stereo not drawn)"
  U: "%"
  cytotoxicity at 70.5 h: -4.87
- Compound: "CC(C)(C)CNS(=O)(=O)C1CS(=O)(=O)c2ccccc21 (stereo not drawn)"
  U: "%"
  cytotoxicity at 70.5 h: 16.6
- Compound: "CCS(=O)(=O)NCCNC(=O)c1cnc(-c2ccccc2)nc1"
  U: "%"
  cytotoxicity at 70.5 h: -8.98
- Compound: "CC(C)(C)c1ccc(S(=O)(=O)CCNC(=O)c2cnccn2)cc1"
  U: "%"
  cytotoxicity at 70.5 h: 10.2
- Compound: "CC(C)c1cc(C(=O)N2CCOC3(CCCC3)C2)no1"
  U: "%"
  cytotoxicity at 70.5 h: -21.7
- Compound: "O=C(NCCc1cccnc1)c1nc2c(s1)CCCN2C(=O)C1CC1"
  U: "%"
  cytotoxicity at 70.5 h: -7.13
- Compound: "CCn1nc(C)c2ccn(CC(=O)NCC3CCCO3)c(=O)c21 (stereo not drawn)"
  U: "%"
  cytotoxicity at 70.5 h: -5.94
- Compound: "COCC1CC2(CCN(Cc3nccs3)CC2)CN1Cc1ccccn1 (stereo not drawn)"
  U: "%"
  cytotoxicity at 70.5 h: 9.76
- Compound: "CSCC(C)NS(=O)(=O)c1ccc(C)c(N(C)C)c1 (stereo not drawn)"
  U: "%"
  cytotoxicity at 70.5 h: -4.35
- Compound: "CCc1nnc2n1CCN(Cc1ccc(C(=O)N3CCCC3)cc1)C2"
  U: "%"
  cytotoxicity at 70.5 h: -25.8
- Compound: "Cc1ncc2c(n1)CN(Cc1ncc(C(C)(C)C)o1)CC2"
  U: "%"
  cytotoxicity at 70.5 h: -13.9
- Compound: "O=C(O)c1cncc(Cc2cccc(F)c2)c1"
  U: "%"
  cytotoxicity at 70.5 h: -7.96
- Compound: "Cc1cc(C)n(C2CN(Cc3ccc(C(=O)N4CCCC4)cc3)C2)n1"
  U: "%"
  cytotoxicity at 70.5 h: -1.2
- Compound: "COc1ccc(CNCC(O)c2cccc(O)c2)cc1Br (stereo not drawn)"
  U: "%"
  cytotoxicity at 70.5 h: -3.02
- Compound: "CCc1cnc(CCNC(C)CC(=O)Nc2cccc(C)c2C)s1 (stereo not drawn)"
  U: "%"
  cytotoxicity at 70.5 h: -5.98
- Compound: "Cn1cc(C[C@H]2[C@H](N3CCOCC3)CCN2c2ncc(F)cn2)cn1"
  U: "%"
  cytotoxicity at 70.5 h: 3.47
- Compound: "CN1CCCC1c1nnc2n1CCN(S(=O)(=O)c1ccccc1Cl)CC2 (stereo not drawn)"
  U: "%"
  cytotoxicity at 70.5 h: -8.1
- Compound: "COc1cccc(-c2csc(Cn3ccc(=O)[nH]c3=O)n2)c1"
  U: "%"
  cytotoxicity at 70.5 h: 19.5
- Compound: "Cc1cc(CN(C)C(=O)NCC(C)N2CCc3ccccc32)no1 (stereo not drawn)"
  U: "%"
  cytotoxicity at 70.5 h: -2.66
- Compound: "Cc1csc(N2CCCN(C(=O)c3ccsc3)CC2)n1"
  U: "%"
  cytotoxicity at 70.5 h: -12
- Compound: "Cc1ccnc(C2CN(Cc3cnn(-c4ccccc4C(=O)O)c3)C2)n1"
  U: "%"
  cytotoxicity at 70.5 h: -6.57
- Compound: "COCCO[C@H]1CCN(C(=O)c2ccoc2C)[C@H]1Cc1cnn(C)c1"
  U: "%"
  cytotoxicity at 70.5 h: -114
- Compound: "CN(Cc1ccncn1)C(=O)C1(Oc2ccc(Cl)cc2)CCNCC1"
  U: "%"
  cytotoxicity at 70.5 h: -4.8
- Compound: "Cc1nnc(SCCNc2cc(C3CC3)ncn2)s1"
  U: "%"
  cytotoxicity at 70.5 h: -5.85
- Compound: "CNC(=O)[C@@H]1[C@@H](c2ccccc2)CN2CCN(Cc3cccs3)C[C@H]12"
  U: "%"
  cytotoxicity at 70.5 h: 0.531
- Compound: "Cc1noc([C@]23COC[C@H]2CN(Cc2cc(C)on2)C3)n1"
  U: "%"
  cytotoxicity at 70.5 h: 47.3
- Compound: "CC(O)CN1CCN(Cc2coc(-c3cccc(Cl)c3)n2)CC1 (stereo not drawn)"
  U: "%"
  cytotoxicity at 70.5 h: -1.14
- Compound: "Cc1cccc(CN2CCn3c(C(=O)N(C)C)cnc3C2)c1"
  U: "%"
  cytotoxicity at 70.5 h: -4.36
- Compound: "O=C(NCC1CCCO1)c1cc(COc2ccccc2F)[nH]n1 (stereo not drawn)"
  U: "%"
  cytotoxicity at 70.5 h: -3.44
- Compound: "Cn1ncc2c(N3CCC3)nc(-c3ccncc3)nc21"
  U: "%"
  cytotoxicity at 70.5 h: 4.72
- Compound: "Cn1cccc1C(O)CNC(=O)c1ccc(C(F)(F)F)cc1 (stereo not drawn)"
  U: "%"
  cytotoxicity at 70.5 h: -20.6
- Compound: "O=C1CN(C(=O)C2CN(c3ccc(F)cc3)CCO2)CCN1 (stereo not drawn)"
  U: "%"
  cytotoxicity at 70.5 h: -7.29
- Compound: "Nc1nc(C2CCN(C(=O)c3cnccn3)CC2)cs1"
  U: "%"
  cytotoxicity at 70.5 h: 15.4
- Compound: "CCOc1ccc(C(=O)Nc2c(C)nc3cccc(C)n3c2=O)cc1"
  U: "%"
  cytotoxicity at 70.5 h: -19.3
- Compound: "CCS(=O)(=O)CCNC(=O)[C@@]12CNC[C@@H]1CN(C1CCCC1)C2"
  U: "%"
  cytotoxicity at 70.5 h: -0.64
- Compound: "COCC(O)CN1CCC(=O)N(CC2CC2)Cc2ccccc21 (stereo not drawn)"
  U: "%"
  cytotoxicity at 70.5 h: -3.32
- Compound: "COc1ccc(Br)cc1CN(C)C(C)c1nc(C(C)C)no1 (stereo not drawn)"
  U: "%"
  cytotoxicity at 70.5 h: -19.6
- Compound: "COCCn1ccnc1C1CCN(C(=O)CSc2nnc(C)s2)CC1"
  U: "%"
  cytotoxicity at 70.5 h: -5.74
- Compound: "COc1ccc(-c2cc(C3CCCNC3)ccn2)cc1 (stereo not drawn)"
  U: "%"
  cytotoxicity at 70.5 h: -12.4
- Compound: "Cc1nn(C)c(C)c1C1COCCN1c1ncncc1Br (stereo not drawn)"
  U: "%"
  cytotoxicity at 70.5 h: -4.79
- Compound: "NC(=O)c1csc(N2CCN(Cc3cccc4nsnc34)CC2)n1"
  U: "%"
  cytotoxicity at 70.5 h: 15.7
- Compound: "O=C(Cn1nc2ccccc2n1)N1CCCn2cncc2C1"
  U: "%"
  cytotoxicity at 70.5 h: -8.74
- Compound: "O=S(=O)(C1CC1)N1CCc2ncc(Cn3cccn3)n2CC1"
  U: "%"
  cytotoxicity at 70.5 h: -1.43
- Compound: "CC(=O)N(C)Cc1cncc(C2CCCN2C2CCOCC2)n1 (stereo not drawn)"
  U: "%"
  cytotoxicity at 70.5 h: -9.86
- Compound: "CC(=O)N1CCc2nc(C3CCN(C(=O)c4ccccc4)C3)ncc2C1 (stereo not drawn)"
  U: "%"
  cytotoxicity at 70.5 h: 0.561
- Compound: "CCc1ccc(OCCN(C)C(=O)c2ccncc2Cl)cc1"
  U: "%"
  cytotoxicity at 70.5 h: -5.33
